System: SNB-19 CNS
assayName: NCI tumour cell line growth inhibition, 48 h
measureName: GI50

Inquiry: GET GI50 | system: SNB-19 CNS | item: COc1cc(/C=C/c2cc(/C=C/c3ccc(O)c(OC)c3)n(C(=O)Nc3ccc(F)c(Cl)c3)n2)ccc1O
Reply text: 0.514 µM

Inquiry: Specify GI50 for COc1ccccc1CNCCCN1C(=O)c2ccc3c4c(ccc(c24)C1=O)C(=O)N(CCCOCCCCOCCCN)C3=O , system SNB-19 CNS.
Reply text: 1.71 µM

Inquiry: Retrieve GI50 on SNB-19 CNS; query CCCCCCCC/C=C/CCCCCCCC(=O)OC[C@H]1O[C@@H](n2ccc(N)nc2=O)C(F)(F)[C@@H]1O
Reply text: < 0.0419 µM

Inquiry: Find the measured GI50 of COc1cc2c3c(n(CCCNC(=O)OCC4c5ccccc5-c5ccccc54)c(=O)c2cc1OC)-c1cc2c(cc1/C3=C\CCNC(=O)OCC1c3ccccc3-c3ccccc31)OCO2 with SNB-19 CNS as test system.
Reply text: > 29.6 µM

====

System: TK-10 renal
assayName: NCI tumour cell line growth inhibition, 48 h
measureName: TGI

Inquiry: Give TGI for the following compound: Cc1cc(S(=O)(=O)N=C2N(Cc3ccccc3)CCN2Cc2ccccc2)c(S)cc1Cl
Reply text: > 100 µM

Inquiry: Entry CSc1ncnc2c1ncn2C1CC(Oc2ccc(C)cc2)C(COc2ccc(C)cc2)O1 (stereo not given) needs its TGI filled in; supply it.
Reply text: > 100 µM

Inquiry: Quote TGI reported for COc1ccc(-c2n[nH]nc2-c2cc(OC)c(OC)c(OC)c2)cc1 please.
Reply text: 50.2 µM

Inquiry: Identify measured TGI corresponding to CC(=O)CSCc1ccccn1
Reply text: > 100 µM

Inquiry: Assign TGI to the following record: O=Cc1ccc(OCc2cccc(COc3ccc(/C=N\Nc4ccc([N+](=O)[O-])cc4[N+](=O)[O-])cc3)n2)cc1
Reply text: > 100 µM

Inquiry: Read the entry CN1c2ccc(Cl)cc2C(=O)NC1c1ccc([N+](=O)[O-])s1 (stereo not given) and write its reported TGI.
Reply text: 48.5 µM

Inquiry: Tell me TGI reported for CCN(CC)C(=O)Cn1c(C)cc2ccccc21
Reply text: > 100 µM

Inquiry: Indicate its recorded TGI; the compound in question is COC(=O)C1=C(C)N(NC(=O)OC(C)(C)C)C(=O)C1=P(c1ccccc1)(c1ccccc1)c1ccccc1
Reply text: > 100 µM

Inquiry: Look up TGI of Cc1ccc(C(=O)CN(/C=C/C(=O)C(F)(F)F)c2ccc(S(N)(=O)=O)cc2)cc1 and report it.
Reply text: > 100 µM

Inquiry: Specify measured TGI for N#CCN1C(=O)c2cccc3cc([N+](=O)[O-])cc(c23)C1=O .
Reply text: 95.6 µM

====

System: UO-31 renal
assayName: NCI tumour cell line growth inhibition, 48 h
Would you kindly list TGI for each of these compounds?

Inquiry: Given the compound c1ccc2c(c1)ccn2CCc1c[nH]c2ccccc12 , write its reported TGI.
Reply text: > 10 µM

Inquiry: Retrieve TGI measured for CCCCCCCC/C=C/CCCCCCCC(=O)OC[C@H]1O[C@@H](n2ccc(N)nc2=O)C(F)(F)[C@@H]1O and print it.
Reply text: 0.125 µM

Inquiry: Identify the reported TGI for the following entry. CC1(C)SCc2nc3ncccc3n21
Reply text: > 100 µM

Inquiry: Specify measured TGI for CC12C(=O)CC(CC1=O)C2(C)C .
Reply text: > 100 µM

Inquiry: Return TGI for the following compound: NC(Cc1ccccc1)C(=O)N[C@H]1c2ccsc2/C(=N/O)[C@H]1O (stereo partly drawn)
Reply text: > 100 µM

Inquiry: Give the reported value of TGI for this record: C[C@@H]1CC(=O)C2CCCC1C2=O (stereo partly drawn)
Reply text: > 100 µM

Inquiry: Let me know recorded TGI for CN1CCN(CCCOc2ccc3nc(Nc4ccc(Cl)c(C(F)(F)F)c4)ccc3c2)CC1 , thanks.
Reply text: 29.4 µM

Inquiry: Please report TGI for the following compound: CCOC(=O)c1cc(C(O)P2(=O)N(CC(C)(C)C)[C@@H]3CCCC[C@H]3N2CC(C)(C)C)cn1C(=O)OC(C)(C)C (stereo partly drawn)
Reply text: 28.7 µM

Inquiry: State, in one line, measured TGI of CCCCC(O)(c1ccc(Cl)cc1)C(CN1CCOCC1)c1ccc(Cl)cc1 (stereo not drawn)
Reply text: 26.2 µM

Inquiry: Read the entry COc1ccccc1/C=C1\SC(=S)N(/C=C2\C(=O)Oc3ccccc3C2=O)C1=O and write its reported TGI.
Reply text: 83.2 µM

Inquiry: Supply reported TGI belonging to this compound: COc1cc2c(cc1OC)C(CC(=O)NN=C(C)C)NCC2 (stereo not drawn)
Reply text: > 100 µM

Inquiry: Hello, please tell me recorded TGI for this one: COc1nc2ccccc2cc1-c1nc2c(cnn2-c2ccc(Br)cc2)c(=O)[nH]1
Reply text: > 50 µM

Inquiry: Please list TGI recorded for the compound O=P(Nc1ccc(Cl)cc1)(Oc1ccccc1)N(CCCl)CCCl (stereo not drawn)
Reply text: > 100 µM

Ref: PubChem BioAssay (NCI)
